SYSTEM: RARγ (Homo sapiens)
Sequence (P13631 185-454 limits assumed): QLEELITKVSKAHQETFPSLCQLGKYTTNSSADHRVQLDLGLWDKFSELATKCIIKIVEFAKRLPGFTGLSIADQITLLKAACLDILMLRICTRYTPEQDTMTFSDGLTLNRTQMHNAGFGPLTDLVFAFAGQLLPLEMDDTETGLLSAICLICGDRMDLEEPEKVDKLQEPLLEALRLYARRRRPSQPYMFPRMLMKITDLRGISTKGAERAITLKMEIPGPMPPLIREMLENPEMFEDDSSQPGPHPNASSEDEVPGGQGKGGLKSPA
MEASUREMENT NOTES: Transactivation assay (luciferase reporter, crossed curves vs reference agonist, Schild regression)
CONDITION CONTEXT: HeLa stable transfectants, ERE-βGlob-Luc-SV-Neo reporter and RARγ ER-DBD-puro; 18 hours incubation; apparent Kd; read-out: RARγ Kdapp
OBSERVATION TYPE: Kd (nM)

CC(C)c1cc(C(O)C#Cc2ccc(C(=O)O)cc2)cc(C(C)C)c1N(C)C (stereo not shown) : 0.5

I = CN(C)c1ccc(C(O)C#Cc2ccc(C(=O)O)cc2)cc1C(C)(C)C (stereo not shown)
II = CCN(CC)c1ccc(C(O)C#Cc2ccc(C(=O)O)cc2)cc1C(C)(C)C (stereo not shown)
III = CCN(CC)c1ccc(C(O)C#Cc2ccc(C(=O)O)c(O)c2)cc1C(C)(C)C (stereo not shown)
stdin: Your job: order these 3 records by Kd, ascending. Please express your ranking as an ordered list of the labels.
stdout: I, II, III

* * *

SYSTEM: RARβ (Homo sapiens, UniProt P10826)
Sequence (P10826 154-455 limits assumed): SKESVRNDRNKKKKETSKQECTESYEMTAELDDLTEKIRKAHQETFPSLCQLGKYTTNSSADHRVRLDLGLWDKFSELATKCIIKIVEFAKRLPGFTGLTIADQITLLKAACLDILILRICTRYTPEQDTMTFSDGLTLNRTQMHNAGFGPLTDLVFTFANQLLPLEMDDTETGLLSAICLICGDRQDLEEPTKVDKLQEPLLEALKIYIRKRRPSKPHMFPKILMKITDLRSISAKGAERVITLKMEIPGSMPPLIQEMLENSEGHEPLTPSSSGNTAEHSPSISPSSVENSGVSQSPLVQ
MEASUREMENT NOTES: Transactivation assay (luciferase reporter, crossed curves vs reference agonist, Schild regression)
CONDITION CONTEXT: HeLa stable transfectants, ERE-βGlob-Luc-SV-Neo reporter and RARβ ER-DBD-puro; 18 hours incubation; apparent Kd; read-out: RARβ Kdapp
OBSERVATION TYPE: Kd (nM)

CCN(CC)c1ccc(C(O)C#Cc2ccc(C(=O)O)cc2)cc1C(C)(C)C (stereo not shown) [Compound of example 1] : 185
CN(C)c1c(Cl)cc(C(O)C#Cc2ccc(C(=O)O)cc2)cc1C(C)(C)C (stereo not shown) [Compound of example 7] : 15
CCN(CC)c1ccc(C(O)C#Cc2ccc(C(=O)O)c(O)c2)cc1C(C)(C)C (stereo not shown) [Compound of example 6] : 500
CN(C)c1ccc(C(O)C#Cc2ccc(C(=O)O)cc2)cc1C(C)(C)C (stereo not shown) [Compound of example 3] : 120
CC(C)c1cc(C(O)C#Cc2ccc(C(=O)O)cc2)cc(C(C)C)c1N(C)C (stereo not shown) [Compound of example 9] : 60

1 = CN(C)c1c(Cl)cc(C(O)C#Cc2ccc(C(=O)O)c(O)c2)cc1C(C)(C)C (stereo not shown) [Compound of example 8]
2 = CC(C)c1cc(C(O)C#Cc2ccc(C(=O)O)c(O)c2)cc(C(C)C)c1N(C)C (stereo not shown) [Compound of example 10]
3 = CC(C)(C)c1cc(C(O)C#Cc2ccc(C(=O)O)cc2)ccc1N1CCCC1 (stereo not shown) [Compound of example 4]
4 = CC(C)(C)c1cc(C(O)C#Cc2ccc(C(=O)O)cc2)ccc1N1CCCCC1 (stereo not shown) [Compound of example 5]
stdin: Arrange by Kd, high to low. Please express your ranking as an ordered list of the labels.
stdout: 4, 3, 2, 1
